assayed system: MOR (Homo sapiens, UniProt P35372)
Construct: host or cells: CHO (CHO-hMOR)
Sequence (P35372 whole entry): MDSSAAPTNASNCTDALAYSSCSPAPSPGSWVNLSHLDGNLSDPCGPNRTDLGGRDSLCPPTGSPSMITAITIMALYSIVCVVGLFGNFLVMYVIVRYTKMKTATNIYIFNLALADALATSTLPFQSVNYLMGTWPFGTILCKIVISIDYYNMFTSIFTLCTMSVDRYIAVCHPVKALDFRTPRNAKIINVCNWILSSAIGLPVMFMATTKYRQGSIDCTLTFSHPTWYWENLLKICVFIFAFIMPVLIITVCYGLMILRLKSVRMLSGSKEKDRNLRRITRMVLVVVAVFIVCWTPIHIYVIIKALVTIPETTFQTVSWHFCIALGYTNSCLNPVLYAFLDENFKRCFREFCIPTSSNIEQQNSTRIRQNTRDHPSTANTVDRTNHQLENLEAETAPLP
assay details: [35S]GTPγS binding assay, CHO-hMOR membranes
Assay type: biochemical
test settings: [35S]GTPγS, CHO human MOR membranes; read-out: MOR EC50
Response field label takes yes when EC50 is strictly below 3 nM and no in all other cases.

compound	answer label
CO[C@@]12CC[C@H](N[C@H](C(=O)O)C(C)C)[C@@H]3Oc4c(O)ccc5c4[C@@]31CCN(C)[C@@H]2C5	no
CO[C@@]12CC[C@H](N[C@@H](Cc3ccc(O)cc3)C(=O)O)[C@@H]3Oc4c(O)ccc5c4[C@@]31CCN(C)[C@@H]2C5.Cl.Cl	yes
CO[C@@]12CC[C@H](N[C@@H](CCCCN)C(=O)O)[C@@H]3Oc4c(O)ccc5c4[C@@]31CCN(C)[C@@H]2C5	yes
CO[C@@]12CC[C@@H](N[C@H](C(=O)N[C@@H](Cc3ccc(O)cc3)C(=O)O)C(C)C)[C@@H]3Oc4c(O)ccc5c4[C@@]31CCN(C)[C@@H]2C5 [Compound 22b]	yes
CC[C@H](N[C@@H]1CC[C@@]2(OC)[C@H]3Cc4ccc(O)c5c4[C@@]2(CCN3C)[C@H]1O5)C(=O)O [Compound 19b]	no

*Q* Is EC50 strictly under 3 nM for the entry CO[C@@]12CC[C@H](N[C@@H](Cc3c[nH]c4ccccc34)C(=O)O)[C@@H]3Oc4c(O)ccc5c4[C@@]31CCN(C)[C@@H]2C5 [Compound 10a] ?
*A* yes

*Q* Given CO[C@@]12CC[C@@H](N[C@@H](CCCCN)C(=O)O)[C@@H]3Oc4c(O)ccc5c4[C@@]31CCN(C)[C@@H]2C5 , is recorded EC50 strictly lower than 3 nM?
*A* no

*Q* Is EC50 of CO[C@@]12CC[C@@H](N[C@@H](CCC(=O)O)C(=O)O)[C@@H]3Oc4c(O)ccc5c4[C@@]31CCN(C)[C@@H]2C5.Cl.Cl [Compound 14b] strictly below 3 nM?
*A* no

----------
assayed system: KOR (Homo sapiens, UniProt P41145)
Construct: host or cells: CHO (CHO-hKOR)
Sequence (P41145 whole entry): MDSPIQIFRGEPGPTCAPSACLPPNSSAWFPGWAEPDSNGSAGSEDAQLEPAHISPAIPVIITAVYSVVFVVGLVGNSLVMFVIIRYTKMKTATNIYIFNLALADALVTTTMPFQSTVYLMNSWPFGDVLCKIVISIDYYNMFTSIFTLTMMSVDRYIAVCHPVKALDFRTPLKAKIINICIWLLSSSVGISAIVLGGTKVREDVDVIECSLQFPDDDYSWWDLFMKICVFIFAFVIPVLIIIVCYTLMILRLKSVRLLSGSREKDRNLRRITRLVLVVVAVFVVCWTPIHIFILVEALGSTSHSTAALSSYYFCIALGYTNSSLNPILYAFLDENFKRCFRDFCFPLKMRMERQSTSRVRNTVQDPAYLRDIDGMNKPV
assay details: [35S]GTPγS binding assay, CHO-hKOR membranes
Assay type: biochemical
test settings: [35S]GTPγS, CHO human KOR membranes; read-out: KOR EC50
observation type: pEC50
Give bare numbers, as −log10 of the molar value.

molecule	experimental result
CC[C@H](N[C@@H]1CC[C@@]2(OC)[C@H]3Cc4ccc(O)c5c4[C@@]2(CCN3C)[C@H]1O5)C(=O)O [Compound 19b]	6.24
CC[C@H](N[C@H]1CC[C@@]2(OC)[C@H]3Cc4ccc(O)c5c4[C@@]2(CCN3C)[C@H]1O5)C(=O)O [Compound 19a]	6.03
CO[C@@]12CC[C@H](N[C@@H](CO)C(=O)O)[C@@H]3Oc4c(O)ccc5c4[C@@]31CCN(C)[C@@H]2C5 [Compound 6a]	5.92
CO[C@@]12CC[C@@H](NCCC(=O)O)[C@@H]3Oc4c(O)ccc5c4[C@@]31CCN(C)[C@@H]2C5 [Compound 20b]	6.21
CO[C@@]12CC[C@@H](N[C@@H](C)C(=O)O)[C@@H]3Oc4c(O)ccc5c4[C@@]31CCN(C)[C@@H]2C5 [Compound 3b]	6.41

*Q* Please give the measured pEC50 for this molecule: CO[C@@]12CC[C@H](N[C@@H](CC(N)=O)C(=O)O)[C@@H]3Oc4c(O)ccc5c4[C@@]31CCN(C)[C@@H]2C5 [Compound 11a]
*A* 7.09

----------
assayed system: MOR (Homo sapiens)
Construct: host or cells: CHO (CHO-hMOR)
assay details: [35S]GTPγS binding assay, CHO-hMOR membranes
Assay type: biochemical
test settings: relative to reference full agonist DAMGO; read-out: MOR % stim.
observation type: Emax (%)
Answers are plain numbers, in %.

Please state Emax for every compound in the list that follows.
1. CO[C@@]12CC[C@H](N[C@@H](C)C(=O)O)[C@@H]3Oc4c(O)ccc5c4[C@@]31CCN(C)[C@@H]2C5 [Compound 3a]
2. CO[C@@]12CC[C@@H](N[C@@H](CC(N)=O)C(=O)O)[C@@H]3Oc4c(O)ccc5c4[C@@]31CCN(C)[C@@H]2C5 [Compound 11b]
3. CO[C@@]12CC[C@@H](N[C@@H](Cc3c[nH]c4ccccc34)C(=O)O)[C@@H]3Oc4c(O)ccc5c4[C@@]31CCN(C)[C@@H]2C5 [Compound 10b]

*A*
1. 97
2. 96
3. 101

Batch of 5 compounds: report Emax for each.
1. CO[C@@]12CC[C@H](N[C@@H](CC(N)=O)C(=O)O)[C@@H]3Oc4c(O)ccc5c4[C@@]31CCN(C)[C@@H]2C5 [Compound 11a]
2. CO[C@@]12CC[C@@H](NCC(=O)O)[C@@H]3Oc4c(O)ccc5c4[C@@]31CCN(C)[C@@H]2C5 [Compound 2b]
3. CO[C@@]12CC[C@@H](N[C@@H](CCC(=O)O)C(=O)O)[C@@H]3Oc4c(O)ccc5c4[C@@]31CCN(C)[C@@H]2C5.Cl.Cl [Compound 14b]
4. CO[C@@]12CC[C@H](N[C@H](C(=O)O)C3CCCCC3)[C@@H]3Oc4c(O)ccc5c4[C@@]31CCN(C)[C@@H]2C5 [Compound 18a]
5. CO[C@@]12CC[C@@H](N[C@@H](CCCCN)C(=O)O)[C@@H]3Oc4c(O)ccc5c4[C@@]31CCN(C)[C@@H]2C5 [Compound 8b]

*A*
1: 99; 2: 98; 3: 98; 4: 86; 5: 90

Can you give me Emax for all of these, one by one?
1. CC[C@H](N[C@H]1CC[C@@]2(OC)[C@H]3Cc4ccc(O)c5c4[C@@]2(CCN3C)[C@H]1O5)C(=O)O [Compound 19a]
2. CO[C@@]12CC[C@H](N[C@@H](Cc3ccc(O)cc3)C(=O)O)[C@@H]3Oc4c(O)ccc5c4[C@@]31CCN(C)[C@@H]2C5.Cl.Cl [Compound 9a]
3. CO[C@@]12CC[C@@H](NCCCC(=O)O)[C@@H]3Oc4c(O)ccc5c4[C@@]31CCN(C)[C@@H]2C5 [Compound 21b]

*A*
1. 88
2. 92
3. 86

*Q* Which Emax value is on record for CO[C@@]12CC[C@H](N[C@@H](Cc3c[nH]c4ccccc34)C(=O)O)[C@@H]3Oc4c(O)ccc5c4[C@@]31CCN(C)[C@@H]2C5 [Compound 10a] ?
*A* 93

----------
Task for the reader: assign each of the following compounds its reported Emax.
assayed system: DOR (Homo sapiens, UniProt P41143)
Construct: host or cells: CHO (CHO-hDOR)
Sequence (P41143 whole entry): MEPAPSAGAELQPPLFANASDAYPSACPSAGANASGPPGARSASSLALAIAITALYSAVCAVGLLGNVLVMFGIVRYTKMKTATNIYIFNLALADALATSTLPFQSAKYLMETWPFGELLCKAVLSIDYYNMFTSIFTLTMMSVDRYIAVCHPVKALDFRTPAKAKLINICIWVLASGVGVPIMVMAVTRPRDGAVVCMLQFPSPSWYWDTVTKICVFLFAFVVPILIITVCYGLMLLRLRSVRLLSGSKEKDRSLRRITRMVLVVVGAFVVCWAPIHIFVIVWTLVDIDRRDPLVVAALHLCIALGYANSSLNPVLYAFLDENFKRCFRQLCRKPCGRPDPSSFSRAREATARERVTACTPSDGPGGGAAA
assay details: [35S]GTPγS binding assay, CHO-hDOR membranes
Format: biochemical
test settings: relative to reference full agonist DPDPE; read-out: DOR % stim.
Give bare numbers, in %.

compound	Emax / %
CO[C@@]12CC[C@H](N[C@H](C(=O)O)C(C)C)[C@@H]3Oc4c(O)ccc5c4[C@@]31CCN(C)[C@@H]2C5	91

For each entry beneath this line, provide reported Emax.
1. CO[C@@]12CC[C@@H](NC(C)C(=O)O)[C@@H]3Oc4c(O)ccc5c4[C@@]31CCN(C)[C@@H]2C5 (stereo in doubt) [Compound 15b]
2. CO[C@@]12CC[C@@H](N[C@@H](Cc3c[nH]c4ccccc34)C(=O)O)[C@@H]3Oc4c(O)ccc5c4[C@@]31CCN(C)[C@@H]2C5 [Compound 10b]
3. CO[C@@]12CC[C@@H](N[C@H](C(=O)O)C(C)C)[C@@H]3Oc4c(O)ccc5c4[C@@]31CCN(C)[C@@H]2C5
4. CO[C@@]12CC[C@H](N[C@@H](Cc3c[nH]c4ccccc34)C(=O)O)[C@@H]3Oc4c(O)ccc5c4[C@@]31CCN(C)[C@@H]2C5 [Compound 10a]
5. CO[C@@]12CC[C@H](N[C@H](C(=O)O)C3CCCCC3)[C@@H]3Oc4c(O)ccc5c4[C@@]31CCN(C)[C@@H]2C5 [Compound 18a]

*A*
106
96
96
102
101

----------
assayed system: DOR (Homo sapiens)
assay details: [35S]GTPγS binding assay, CHO-hDOR membranes
test settings: [35S]GTPγS, CHO human DOR membranes
Method: Efficacies are presented as percentage stimulation relative to the standard full agonists, [D-Ala^2,N-Me-Phe4,Gly-ol^5]enkephalin (DAMGO for MOR),[53] […] Membranes from CHO cells expressing human opioid receptors were prepared in 50 mM Tris-HCl buffer (pH 7.7) according to a previously described procedure.[64] […] Protein content of brain and cell membrane preparation homogenates was determined by the method of Bradford using bovine serum albumin as the standard.[65] […]
Kindly supply the reported pEC50 values for the records listed here.
Numbers only, as −log10 of the molar value.

Recorded pEC50, per entry:
compound	pEC50
CO[C@@]12CC[C@H](N[C@@H](CCCCN)C(=O)O)[C@@H]3Oc4c(O)ccc5c4[C@@]31CCN(C)[C@@H]2C5	6.82
CO[C@@]12CC[C@@H](N[C@H](Cc3ccccc3)C(=O)O)[C@@H]3Oc4c(O)ccc5c4[C@@]31CCN(C)[C@@H]2C5 [Compound 17b]	8.77

Hey, can you go through the list below and give me pEC50 for every item?
1. CO[C@@]12CC[C@@H](NCCC(=O)O)[C@@H]3Oc4c(O)ccc5c4[C@@]31CCN(C)[C@@H]2C5 [Compound 20b]
2. CO[C@@]12CC[C@@H](NCC(=O)NCC(=O)O)[C@@H]3Oc4c(O)ccc5c4[C@@]31CCN(C)[C@@H]2C5 [Compound 23a]

*A*
[7.70, 8.55]
